Target: His-tagged HMGB1 (UniProt P09429 P09429:1-215)
Sequence (P09429 whole entry, one chain of several): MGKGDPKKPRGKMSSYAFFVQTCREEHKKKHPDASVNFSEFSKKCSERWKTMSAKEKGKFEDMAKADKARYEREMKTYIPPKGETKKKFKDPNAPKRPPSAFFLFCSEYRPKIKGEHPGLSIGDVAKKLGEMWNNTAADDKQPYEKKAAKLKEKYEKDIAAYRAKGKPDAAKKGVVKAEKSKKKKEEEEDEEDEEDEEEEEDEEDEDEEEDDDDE
Experiment: SPR; 150 nM protein
Conditions: tags: N-terminal His-tag
readoutName: binding result

binder="GGGACAGUAAGACACGUAGCACCAGUGCCUGGACGUGCAGU (ssRNA) [R8c6_1-21-S8]" val=binds
binder="GGGCAGUAAGACACGUAGCACCAGUGCCUGGACGUGCAGU (ssRNA) [R8c6_1-22-S8]" val=binds
binder="GGGUAAGACACGUAGCACCAGUGUGCCUGGACGUGCAGU (ssRNA, 2'-F on all C and U) [2'F-R8c6_1-25-S6]" val=binds
